Catalogue of compounds with associated Activity
PROCEDURE SUMMARY: Antioxidant activity assessed as xanthine-xanthine oxidase generated superoxide anion scavenging at 100 mg/ml after 30 mins by NBT reduction assay
Type: functional
Value expressed in %; do not type the unit.

COMPOUND: Cc1ccc(C(=O)CNC(=O)/C=C/c2ccc(O)cc2)cc1
UNIT: %
Activity: 17
--
COMPOUND: Cc1ccc(C(O)CNC(=O)Cc2cccnc2)cc1 (racemic)
UNIT: %
Activity: 17

Prompt: // fetch Activity given entry COc1ccc([C@@H](O)CNC(=O)/C=C/c2ccccc2)cc1
Response: 19

Prompt: // fetch Activity given entry COc1cc(/C=C/C(=O)NCC(O)c2ccc(C)cc2)ccc1O (mixture of isomers)
Response: 21

Prompt: // fetch Activity given entry Cc1ccc(C(=O)CNC(=O)CCc2cccnc2)cc1
Response: 24
